Parameter max response: see the listing below.
- assay target: Peroxisome proliferator-activated receptor alpha (Homo sapiens)
- method: qHTS assay for small molecule agonists of the peroxisome proliferator-activated receptor alpha (PPARalpha) signaling pathway (AID 651778); further: % of control where 0% means no effect
- condition: PathHunter PPARalpha complementation, chemiluminescence, 6 h; active compounds read high
The source made the active and inactive calls. The call rests on the fitted dose curve; in most records, active means well fitted activation curve with a large enough effect; inconclusive means small, poorly fitted or top-dose-only effect; inactive means flat fitted curve, though single readings scatter.

molecule	assay target	max response
c1ccc2scnc2c1	Peroxisome proliferator-activated receptor alpha (Homo sapiens)	-3.74% (inactive)
COc1cc(/C=C/c2ccccc2)oc(=O)c1	Peroxisome proliferator-activated receptor alpha (Homo sapiens)	-1.59% (inactive)
CCC(O)OC(O)CC (stereo not drawn)	Peroxisome proliferator-activated receptor alpha (Homo sapiens)	-0.587% (inactive) [middle of 4 runs]
O=C(Nc1ccccc1)c1ccccc1O	Peroxisome proliferator-activated receptor alpha (Homo sapiens)	-0.0723% (inactive)
O[C@@H]([C@H](O)[C@@H](O)CBr)[C@@H](O)CBr	Peroxisome proliferator-activated receptor alpha (Homo sapiens)	-0.722% (inactive)

q: Consider the molecule `COc1c2ccoc2cc2oc(=O)ccc12` . State its measured max response.
a: -2.53% (inactive)

q: Consider the molecule S=C1NC=NC2N=CNC12 (stereo not drawn) . State its measured max response.
a: -7.07% (inactive)

q: Consider the molecule `CCCCCCCCOC(=O)c1cc(O)c(O)c(O)c1` . State its measured max response.
a: -2.68% (inactive)

q: Consider the molecule `O=C(/C=C/c1ccc(O)c(O)c1)O[C@@H](C(=O)O)[C@@H](OC(=O)/C=C/c1ccc(O)c(O)c1)C(=O)O` . State its measured max response.
a: -4.13% (inactive)

q: Consider the molecule NC1=NC(S)C2N=CN=C2N1 (stereo not drawn) . State its measured max response.
a: -3.14% (inactive)

q: Consider the molecule `CC1(C)S[C@@H]2[C@H](NC(=O)COc3ccccc3)C(=O)N2[C@H]1C(=O)O` . State its measured max response.
a: -2.73% (inactive)

q: Consider the molecule `C=Cc1ccccc1Cl` . State its measured max response.
a: -0.389% (inactive)

q: Consider the molecule C=C(C)C1CC=C(C)C(O)C1 (stereo not drawn) . State its measured max response.
a: -4.25% (inactive)
